Tested on: UACC-62 melanoma
Test: NCI tumour cell line growth inhibition, 48 h; in the data active = GI50 below about 0.43 µM; inactive = the rest
The categories you may choose from are label 1 = active, label 0 = inactive

Which outcome was entered for the compound [C](#Cc1ccccc1)[Hg][C]#Cc1ccccc1 in this test? label 0

Which outcome was entered for the compound O=C(/C=C/C12c3ccccc3C(c3ccccc31)C1C(=O)NC(=O)C12)c1ccc(Cl)cc1Cl (centres undefined) in this test? label 0

Which outcome was entered for the compound CN(CCCCCl)P(=O)(OCCS(=O)(=O)CC(NC(=O)CCC(N)C(=O)O)C(=O)NC(C(=O)O)c1ccccc1)OCC1OC(n2ccc(N)nc2=O)C(F)(F)C1O (centres undefined) in this test? label 1

Now, please, on to the next compound.
Which outcome was entered for the compound COC(=O)c1cc2c3ccccc3n3c(=O)c4cc5ccc(N(S(=O)(=O)c6ccc(C)cc6)S(=O)(=O)c6ccc(C)cc6)cc5nc4c(n1)c23 in this test? label 0

----------
Test system: HT29 colon
Test: NCI tumour cell line growth inhibition, 48 h
assay endpoint: TGI

Below: 2 compounds and their reported TGI.
Summary for this compound, COC(CN(C(C)=O)C1CCC2(SCCS2)c2[nH]c3ccccc3c21)OC (stereo not given) : TGI is > 100 µM

Summary for this compound, NS(=O)(=O)c1ccc(-n2nc3c(c2-c2ccc(Cl)cc2)Cc2ccccc2-3)cc1 : TGI is 98.1 µM

Next:
Summary for this compound, CN(C)CCNC(=O)c1ccc(NCCCN(C)CCCNc2ccc(C(=O)NCCN(C)C)c3[nH]c4ccccc4c(=O)c23)c2c(=O)c3ccccc3[nH]c12 : TGI is 0.236 µM

Summary for this compound, NC(N)=NC(N)=Nc1ccc(S(=O)(=O)O)cc1 : TGI is > 100 µM

Summary for this compound, Cc1nc(-c2ccccc2)n2nc(NCCCN3CCOCC3)ncc12 : TGI is > 25 µM

----------
Test system: SN12C renal
Experiment: NCI tumour cell line growth inhibition, 48 h
assay endpoint: TGI

Below: 5 molecules and their reported TGI.
Summary for this molecule, O=C(O)c1ccc(CI)cc1 : TGI is 34.7 µM

Summary for this molecule, COc1ccc(C2OC(=O)c3ccc4ccccc4c32)c(C)c1 (stereo unspecified) : TGI is > 100 µM

Summary for this molecule, CN(CCCCCl)P(=O)(OCCS(=O)(=O)CC(NC(=O)CCC(N)C(=O)O)C(=O)NC(C(=O)O)c1ccccc1)OCC1OC(n2ccc(N)nc2=O)C(F)(F)C1O (stereo unspecified) : TGI is > 50.9 µM

Summary for this molecule, Cc1nc(N)nc2c1CCC(O)S2 (stereo unspecified) : TGI is 56.2 µM

Summary for this molecule, O=C(NCCN1CCOCC1)c1cn2c(ccc3sc4ccccc4c(=O)c32)n1 : TGI is > 100 µM

Next:
Summary for this molecule, CC(=O)Oc1ccc(C23c4ccccc4C2(OC(C)=O)c2cc(OC(C)=O)ccc23)cc1 (stereo unspecified) : TGI is 20.2 µM

Summary for this molecule, O=C(/C=C/C12c3ccccc3C(c3ccccc31)C1C(=O)NC(=O)C12)c1ccc(Cl)cc1Cl (stereo unspecified) : TGI is 3.29 µM

Summary for this molecule, O=c1/c(=C/c2ccccc2[N+](=O)[O-])sc2nc3ccccc3n12 : TGI is > 46.4 µM

Summary for this molecule, O=C1c2cc(Cl)ccc2NC(=NC2CCCC2)C2CSCN12 (stereo unspecified) : TGI is > 100 µM

Summary for this molecule, CCNc1cc(-c2cccc(OC(F)(F)F)c2)nc2ccc(N3CCCC3)cc12 : TGI is 3.97 µM

Summary for this molecule, COc1ccc(NC(=O)CC2SC(=Nc3ccccc3C)NC2=O)c([N+](=O)[O-])c1 (stereo unspecified) : TGI is > 100 µM

Summary for this molecule, CN(C(=O)Cc1ccccc1)n1cnn(CC(=O)OC(C)(C)C)c1=S : TGI is > 10 µM

Summary for this molecule, NS(=O)(=O)c1ccc(-n2nc3c(c2-c2ccc(Cl)cc2)Cc2ccccc2-3)cc1 : TGI is 18.3 µM

Summary for this molecule, O=C(CCC(=O)Nc1ccc(Cl)c(Cl)c1)CC(=O)c1ccc(Br)cc1 : TGI is > 100 µM

Summary for this molecule, C=CCNc1nc2c(s1)C(=O)c1ccccc1C2=O : TGI is 27.4 µM
